Kindly supply the reported MIC values for the records listed here.
# Tested on: Micrococcus luteus
# ASSAY EXPLANATION: Antibacterial activity against Micrococcus luteus assessed as inhibition of bacterial growth incubated for 16 to 20 hrs by CLSI based microdilution method
# Assay type: functional
# RECORDED CONDITIONS: time 16-20 hrs
Numbers only, in µg/mL.

As a guide, the following entries are already answered.
Asked: Fill in: MIC of C=CCc1cccc(Oc2ccc(C(=O)CC)cc2)c1OCCC[N+](C)(C)CC(=O)N(CC)CC.[Br-] is ___
Given back: 128

Asked: Consider the compound shown here: C=CCc1cccc(Oc2ccc(C(=O)CC)cc2)c1OCCCC[N+](C)(C)CC(=O)N1CCCC1.[Br-] What is its recorded MIC?
Given back: 32

Asked: I have this compound here, C=CCc1cccc(Oc2ccc(C(=O)CC)cc2)c1OCCCC[N+](C)(C)CC(=O)N1CCOCC1.[Br-] , and I need its recorded MIC.
Given back: 64

***
Asked: Look up MIC: C=CCc1cccc(Oc2ccc(C(=O)CC)cc2)c1OCCCC[N+](C)(C)CC(=O)N(CCC)CCC.[Br-]
Given back: 64

----------
# ASSAY EXPLANATION: Selectivity index, ratio of HC50 for hemolytic activity in sheep RBC to MIC for antibacterial activity against Staphylococcus aureus ATCC 29213
# Assay type: toxicity
# RECORDED CONDITIONS: sheep red blood cells
Kindly return criterion met if reported selectivity ratio is no lower than 10; return criterion not met if it is lower.

Reference set (5 entries):
Asked: Assess whether reported selectivity ratio for C=CCc1cccc(Oc2ccc(C(=O)CC)cc2)c1OCCC[N+](C)(C)CC(=O)N1CCOCC1.[Br-] sits at 10 or higher.
Given back: criterion met

Asked: Decide: is the reported value of selectivity ratio for C=CCc1cccc(Oc2ccc(C(=O)CC)cc2)c1OCCCC[N+](C)(C)CC(=O)N(CC)CC.[Br-] equal to or greater than 10?
Given back: criterion met

Asked: Exam item: decide whether the reported selectivity ratio for C=CCc1cccc(Oc2ccc(C(=O)CC)cc2)c1OCC[N+](C)(C)CC(=O)NCCCCC.[Br-] is at least 10.
Given back: criterion met

Asked: Confirm if selectivity ratio reported for the molecule C=CCc1cccc(Oc2ccc(C(=O)CC)cc2)c1OCCC[N+](C)(C)CC(=O)NCCCCCC.[Br-] is 10 or above.
Given back: criterion met

Asked: Does selectivity ratio meet or surpass 10 for C=CCc1cccc(Oc2ccc(C(=O)CC)cc2)c1OCCCC[N+](C)(C)CC(=O)N1CCOCC1.[Br-] ?
Given back: criterion not met

Others:
Asked: Please indicate if the recorded selectivity ratio for Br.C=CCc1cccc(Oc2ccc(C(=O)CC)cc2)c1OCCCSC(=N)N meets or exceeds 10.
Given back: criterion met

Asked: I'd appreciate it if you could say whether C=CCc1cccc(Oc2ccc(C(=O)CC)cc2)c1O has selectivity ratio at least equal to 10.
Given back: criterion not met

Asked: Reported selectivity ratio reaches at least 10 for C=CCc1cccc(Oc2ccc(C(=O)CC)cc2)c1OCCC[N+](C)(C)CC(=O)N1CCCC1.[Br-] ?
Given back: criterion met

Asked: Decide: is the reported value of selectivity ratio for C=CCc1cccc(Oc2ccc(C(=O)CC)cc2)c1OCCCC[N+](C)(C)CC(=O)NCC.[Br-] equal to or greater than 10?
Given back: criterion met

----------
# Tested on: Micrococcus luteus
# ASSAY EXPLANATION: Antibacterial activity against Micrococcus luteus assessed as inhibition of bacterial growth incubated for 16 to 20 hrs by CLSI based microdilution method
# Assay type: functional
# RECORDED CONDITIONS: time 16-20 hrs
MEASURED METRIC: MIC (µg/mL)
Answers are plain numbers, in µg/mL.

// worked examples, MIC included
Asked: Look up MIC for this compound: C=CCc1cccc(Oc2ccc(C(=O)CC)cc2)c1O
Given back: 64

Asked: What value of MIC has been reported for the following compound? C=CCc1cccc(Oc2ccc(C(=O)CC)cc2)c1OCCC[N+](C)(C)CC(=O)NCCCC.[Br-]
Given back: 32

Asked: Entry C=CCc1cccc(Oc2ccc(C(=O)CC)cc2)c1OCCCC[N+](C)(C)CC(=O)N(CCCC)CCCC.[Br-] has what MIC?
Given back: 32

Asked: Requested read-out: MIC. Entry: C=CCc1cccc(Oc2ccc(C(=O)CC)cc2)c1OCCC[N+](C)(C)CC(=O)N(CCC)CCC.[Br-]
Given back: 32

Please go through the list and note MIC for each compound.
1. C=CCc1cccc(Oc2ccc(C(=O)CC)cc2)c1OCC[N+](C)(C)CC(=O)NCCCC.[Br-]
2. C=CCc1cccc(Oc2ccc(C(=O)CC)cc2)c1OCC[N+](C)(C)CC(=O)N1CCCC1.[Br-]

Given back:
64
32

Please give MIC, item by item, for the list that follows.
1. C=CCc1cccc(Oc2ccc(C(=O)CC)cc2)c1OCCCC[N+](C)(C)CC(=O)NCCCC.[Br-]
2. C=CCc1cccc(Oc2ccc(C(=O)CC)cc2)c1OCCC[N+](C)(C)CC(=O)N1CCOCC1.[Br-]

Given back:
1: 16; 2: 64

Please state MIC for every compound in the list that follows.
1. C=CCc1cccc(Oc2ccc(C(=O)CC)cc2)c1OCCCC[N+](C)(C)CC(=O)NCCCCCC.[Br-]
2. C=CCc1cccc(Oc2ccc(C(=O)CC)cc2)c1OCCC[N+](C)(C)CC(=O)NCCCCCC.[Br-]
3. C=CCc1cccc(Oc2ccc(C(=O)CC)cc2)c1OCCC[N+](C)(C)CC(=O)NCCCCC.[Br-]
4. C=CCc1cccc(Oc2ccc(C(=O)CC)cc2)c1OCCC[N+](C)(C)CC(=O)NCC.[Br-]
5. Br.C=CCc1cccc(Oc2ccc(C(=O)CC)cc2)c1OCCCCSC(=N)N

Given back:
64
1
32
64
16

For each entry beneath this line, provide reported MIC.
1. C=CCc1ccc(O)c(Oc2ccc(C(=O)CC)cc2)c1
2. C=CCc1cccc(Oc2ccc(C(=O)CC)cc2)c1OCC[N+](C)(C)CC(=O)N(CCCC)CCCC.[Br-]
3. Br.C=CCc1cccc(Oc2ccc(C(=O)CC)cc2)c1OCCSC(=N)N
4. C=CCc1cccc(Oc2ccc(C(=O)CC)cc2)c1OCC[N+](C)(C)CC(=O)NCCCCC.[Br-]

Given back:
64
32
64
16

----------
# ASSAY EXPLANATION: Selectivity index, ratio of HC50 for hemolytic activity in sheep RBC to MIC for antibacterial activity against Staphylococcus aureus ATCC 29213
# Type: toxicity
# RECORDED CONDITIONS: sheep red blood cells
MEASURED METRIC: selectivity ratio
Numbers only.

Solved entries:
Asked: GET /values?readout=selectivity ratio&item= C=CCc1cccc(Oc2ccc(C(=O)CC)cc2)c1OCCCC[N+](C)(C)CC(=O)NCCCCCC.[Br-]
Given back: 160

Asked: Can you share its selectivity ratio? I mean this compound: Br.C=CCc1cccc(Oc2ccc(C(=O)CC)cc2)c1OCCSC(=N)N
Given back: 24.6

Asked: Can you share its selectivity ratio? I mean this compound: C=CCc1cccc(Oc2ccc(C(=O)CC)cc2)c1OCCC[N+](C)(C)CC(=O)N(CC)CC.[Br-]
Given back: 22.9

Asked: What value of selectivity ratio has been recorded for this entry: C=CCc1cccc(Oc2ccc(C(=O)CC)cc2)c1OCC[N+](C)(C)CC(=O)N(CCC)CCC.[Br-]
Given back: 138

Asked: Query (compound): C=CCc1cccc(Oc2ccc(C(=O)CC)cc2)c1OCCC[N+](C)(C)CC(=O)NCCCC.[Br-] ; field requested: selectivity ratio
Given back: 63.3

Below are 7 compounds. Give each one its selectivity ratio.
1. C=CCc1cccc(Oc2ccc(C(=O)CC)cc2)c1OCCCC[N+](C)(C)CC(=O)NCCCCC.[Br-]
2. C=CCc1cccc(Oc2ccc(C(=O)CC)cc2)c1OCC[N+](C)(C)CC(=O)N(CC)CC.[Br-]
3. C=CCc1cccc(Oc2ccc(C(=O)CC)cc2)c1OCCC[N+](C)(C)CC(=O)NCC.[Br-]
4. C=CCc1cccc(Oc2ccc(C(=O)CC)cc2)c1OCC[N+](C)(C)CC(=O)NCCCC.[Br-]
5. C=CCc1cccc(Oc2ccc(C(=O)CC)cc2)c1OCCCC[N+](C)(C)CC(=O)NCCC.[Br-]
6. C=CCc1cccc(Oc2ccc(C(=O)CC)cc2)c1OCC[N+](C)(C)CC(=O)NCCC.[Br-]
7. C=CCc1cccc(Oc2ccc(C(=O)CC)cc2)c1OCCCC[N+](C)(C)CC(=O)N1CCCC1.[Br-]

Given back:
[141, 10.8, 7.8, 35.9, 25.7, 19.8, 36.2]

Below are some compounds; for each one, tell me its selectivity ratio.
1. Br.C=CCc1cccc(Oc2ccc(C(=O)CC)cc2)c1OCCCCSC(=N)N
2. CCCCCCNC(=O)C[N+](C)(C)CCOc1ccccc1Oc1ccc(C(=O)CC)cc1.[Br-]
3. C=CCc1cccc(Oc2ccc(C(=O)CC)cc2)c1OCCC[N+](C)(C)CC(=O)NCCCCC.[Br-]
4. C=CCc1cccc(Oc2ccc(C(=O)CC)cc2)c1OCC[N+](C)(C)CC(=O)NCCCCCC.[Br-]

Given back:
58.2
57.4
172
556

Asked: What value of selectivity ratio has been recorded for this entry: C=CCc1cccc(Oc2ccc(C(=O)CC)cc2)c1OCCCC[N+](C)(C)CC(=O)N(CCCC)CCCC.[Br-]
Given back: 388
